biological target: T1, recombinant human TR-2 with a C-terminal hexahistidine tag (TR-2-His) (human, UniProt O14763 56-207); assay: SPR Biacore 2000; antibody captured on anti-human antibody chip, 226 nM TR-2-His injected, 25 C, 1:1 model;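 note: goat anti-human capture surface amine-coupled on CM5 chip, HBS-P running buffer with BSA, responses normalized to captured antibody level, kinetics from global 1:1 fitting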
T1 construct: also called soluble TR-2-His
parameter measured: Kd (nM)
Expressed in nM, but write only the number.

# binder, Kd [nM]
data = [
    ("anti-TR-2 antibody C (antibody, V domains shown, Human antibody from XenoMouse; also called Ab C) VH: QVQLQESGPGLVKPSQTLSLTCTVSGGSISSGGHYWSWIRQHPGKGLEWIGYIYYSGSAYYNPSLKSRVTISVDTSKNQFSLKLSSVTAADTAVYYCARDDSSGWGFDYWGQGILVTVSS VL: DIQMTQSPSSLSASVGDRVTITCRASQGLRNDLGWFQQKPGKAPKRLIYAASSLQRGVPSRFSGSGSGTEFTLTISSLQPEDFTTYFCLQHNSFPWTFGQGTKVEIK", 3.9),
]

Turning now to a further binder:
The binder anti-TR-2 antibody F (antibody, V domains shown, also called Ab F) VH: QVQLVESGGGVVQPGRSLRLSCAASGFTFSYYGIHWVRQAPGKGLEWVAVIWYDGSNKYYADSVKGRFTISRDNSKNTLYLQMNSLRAEDTAVYYCARGRYSSSSWWYFDLWGRGTLVTVSS VL: DIQMTQSPSSLSASVGDRVTITCRASQGISNYLAWYQQKPGKVPKLLIYAASTLQSGVPSRFSGSGSGTDFTLTISSLQPEDVATYYCQKYNSAPLTFGGGTKVEIK showed Kd equal to 13
